tested on: SK-MEL-5; assay: NCI tumour cell line growth inhibition, 48 h
Calls of active or inactive are those of the source. Rule as the data show it: active = GI50 up to about 1.1 µM and inactive = higher.
Could you please pick one outcome from this set? class 1 for active, class 0 for inactive

Qu. Write down the call the test reported for this compound. Item: O=C1OC(Cc2ccccc2)(N2CCCC2=O)C1c1ccccc1 (stereo not drawn)
Ans. class 0

Qu. Write down the call the test reported for this compound. Item: `Clc1nc(Cl)c(CBr)c(Cl)n1`
Ans. class 0

Qu. Write down the call the test reported for this compound. Item: `CCOC(=O)[C@H](O)[C@@H](O)C(=O)NCc1ccc(C(=O)c2ccccc2)cc1`
Ans. class 0

====

test system: HT-29; experiment: NCI tumour cell line growth inhibition, 48 h
Active and inactive are the calls of the source. Rule as the data show it: active = GI50 up to about 1.1 µM and inactive = higher.
Measured Quantity: GI50

Here's what some known entries look like.
{"columns": ["Compound", "Measured Quantity", "Reported Result"],
 "data": [
  ["O=C1c2cc3c(cc2CC12Cc1cc4c(cc1C2=O)CCC4)CCC3", "GI50", "> 100 µM (inactive)"],
  ["COc1cc(/C=C2\\[C@@H]3NC(Cc4c(OC)c(C)c(OC)c(OC)c43)C(=O)N2Cc2ccccc2)c(OC)c(C)c1OC", "GI50", "24.9 µM (inactive)"],
  ["CN(C)CC1(Cc2ccccc2)CCC(Cc2ccccc2)C1=O (centres undefined)", "GI50", "13 µM (inactive)"]
]}

Continue with the next compound.
Qu. Given O=P(c1ccccc1)(c1ccccc1)C1CC=C(c2ccccc2)C2(CCCC2)C1 (centres undefined) , state its recorded GI50.
Ans. 59.2 µM (inactive)
